Origin of values: ChEMBL document CHEMBL4665651

# Test system: HCT-116
# Procedure Summary: Antiproliferative activity against human HCT-116 cells assessed as reduction in cell viability incubated for 72 hrs by SRB assay
# Format: functional, cell-based
# Applied Conditions: HCT-116, 72 h
Items are presented alongside their recorded IC50.
Answer format: numeric, nM implied, no suffix.

Sample records with IC50:
COc1ncc(-c2ccc3nccc(-c4ccnnc4)c3c2)cc1NS(=O)(=O)c1ccc(F)cc1F [OMIPALISIB] | 140
COc1ncc(-c2ccc3ncnc(Nc4cnn(CCC(=O)O)c4)c3c2)cc1NS(=O)(=O)c1ccc(F)cc1F | 1290
COc1ncc(-c2ccc3ncnc(Nc4ccc(OCCO)c(Cl)c4)c3c2)cc1NS(=O)(=O)c1ccc(F)cc1F | 7320
COc1ncc(-c2ccc3ncnc(Nc4cnn(CC(=O)O)c4)c3c2)cc1NS(=O)(=O)c1ccc(F)cc1F | 1540
COC(=O)Cn1cc(Nc2ncnc3ccc(-c4cnc(OC)c(NS(=O)(=O)c5ccc(F)cc5F)c4)cc23)cn1 | 1260
COc1ncc(-c2ccc3ncnc(Nc4ccc(OCCO)c(F)c4)c3c2)cc1NS(=O)(=O)c1ccc(F)cc1F | 9160
COC(=O)CCn1cc(Nc2ncnc3ccc(-c4cnc(OC)c(NS(=O)(=O)c5ccc(F)cc5F)c4)cc23)cn1 | 970

INPUT: Could you share what IC50 was measured for COc1ncc(-c2ccc3ncnc(Nc4cnn(CCO)c4)c3c2)cc1NS(=O)(=O)c1ccc(F)cc1F , tested on HCT-116?
OUTPUT: 330
